- System: 817829-284-R-J1-PDC complex spheroid viability
- Assay Protocol: Anticancer human tumor 817829-284-R-J1-PDC patient-derived colon adenocarcinoma cell line growth inhibition [POLQ]
- Condition Summary: second compound 1 µM; first compound 0.316 µM; stronger effect = lower value
Reported Metric: viability, T/C

Batch: viability, T/C for all items listed.
1. COc1cc2cc(C(=O)CCC(=O)O)sc2cc1OC + Cc1cccc(N(C)C(=O)C2C(O)CCN2c2nc(C)cc(C(F)(F)F)c2C#N)c1
2. COc1cc(C2c3cc4c(cc3C(OC3OC5COC(C)OC5C(O)C3O)C3COC(=O)C23)OCO4)cc(OC)c1O (stereo not given) + Nc1ccc(C#CCN(C(=O)Cc2ncc(C(F)(F)F)cc2C(F)(F)F)c2ccc(F)cc2)nn1
3. COc1cc(C2c3cc4c(cc3C(OC3OC5COC(C)OC5C(O)C3O)C3COC(=O)C23)OCO4)cc(OC)c1O (stereo not given) + Cc1cccc(N(C)C(=O)C2C(O)CCN2c2nc(C)cc(C(F)(F)F)c2C#N)c1
4. CC1COCCN1c1cc(-c2ccnn2C)c2ccnc(-c3ccn[nH]3)c2n1 (stereo not given) + Cc1cccc(N(C)C(=O)C2C(O)CCN2c2nc(C)cc(C(F)(F)F)c2C#N)c1
5. COc1cccc(OCCCN)c1-c1cc(Nc2cnc(C#N)cn2)n[nH]1 + COC1C(OC(N)=O)C(O)C(Oc2ccc3c(O)c(NC(=O)c4ccc(O)c(CC=C(C)C)c4)c(=O)oc3c2C)OC1(C)C

A.
96.7%
16.7%
18.9%
5.41%
4.97%

---

- System: 817829-284-R-J1-PDC complex spheroid viability
- Assay Protocol: Anticancer human tumor 817829-284-R-J1-PDC cell line growth inhibition [POLQ];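 further: spheroids exposed to compounds for 7 days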
- Condition Summary: curve of first compound; second compound 0.1 µM
Can you tell me IC50 for the items I'm about to list?

As a guide, the following entries are already answered.
Compound	IC50
C=CC(=O)N1CCN(c2nc(=O)n(-c3c(C)ccnc3C(C)C)c3nc(-c4c(O)cccc4F)c(F)cc23)C(C)C1 (stereo not given) + Nc1ccc(C#CCN(C(=O)Cc2ncc(C(F)(F)F)cc2C(F)(F)F)c2ccc(F)cc2)nn1	> 10000 nM
CC(=O)O[C@H]1C(=O)[C@@]2(C)[C@H]([C@H](OC(=O)c3ccccc3)[C@]3(O)C[C@H](OC(=O)[C@H](O)[C@@H](NC(=O)c4ccccc4)c4ccccc4)C(C)=C1C3(C)C)[C@]1(OC(C)=O)CO[C@@H]1C[C@@H]2O + Nc1ccc(C#CCN(C(=O)Cc2ncc(C(F)(F)F)cc2C(F)(F)F)c2ccc(F)cc2)nn1	< 9.49 nM
COc1ccc([C@@H](O)c2cc(-c3ncnc4cc(N5CCOCC5)ccc34)c(F)cc2Cl)nn1 + Nc1ccc(C#CCN(C(=O)Cc2ncc(C(F)(F)F)cc2C(F)(F)F)c2ccc(F)cc2)nn1	701 nM
Nc1ccn(C2OC(CO)C(O)C2(F)F)c(=O)n1 (stereo not given) + COC1C(OC(N)=O)C(O)C(Oc2ccc3c(O)c(NC(=O)c4ccc(O)c(CC=C(C)C)c4)c(=O)oc3c2C)OC1(C)C	< 31.6 nM

// next entry
Q. So what's the measured IC50 for this one? CC1COCCN1c1cc(-c2ccnn2C)c2ccnc(-c3ccn[nH]3)c2n1 (stereo not given) + Cc1cccc(N(C)C(=O)C2C(O)CCN2c2nc(C)cc(C(F)(F)F)c2C#N)c1
A. < 31.6 nM

---

- System: 817829-284-R-J1-PDC complex spheroid viability
- Assay Protocol: Anticancer human tumor 817829-284-R-J1-PDC cell line growth inhibition [POLQ];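 further: spheroids exposed to compounds for 7 days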
- Condition Summary: curve of first compound; second compound 1 µM
Reported Metric: IC50 (µM)
One number for each entry, in µM.

As a guide, the following entries are already answered.
Compound	IC50 (µM)
COc1cccc2c1C(=O)c1c(O)c3c(c(O)c1C2=O)CC(O)(C(=O)CO)CC3OC1CC(N)C(O)C(C)O1 (stereo not given) + COC1C(OC(N)=O)C(O)C(Oc2ccc3c(O)c(NC(=O)c4ccc(O)c(CC=C(C)C)c4)c(=O)oc3c2C)OC1(C)C	0.109
CCc1cc2c(N3CCc4c(cc(Cn5ccnc5)cc4-c4cn(C)nc4C(F)(F)F)C3=O)ccnc2c(OC)n1 + Cc1cccc(N(C)C(=O)C2C(O)CCN2c2nc(C)cc(C(F)(F)F)c2C#N)c1	2.77

// next entry
Q. So what's the measured IC50 for this one? COc1cc(C2c3cc4c(cc3C(OC3OC5COC(C)OC5C(O)C3O)C3COC(=O)C23)OCO4)cc(OC)c1O (stereo not given) + Nc1ccc(C#CCN(C(=O)Cc2ncc(C(F)(F)F)cc2C(F)(F)F)c2ccc(F)cc2)nn1
A. 0.129

---

- Tested on: 817829-284-R-J1-PDC complex spheroid viability
- Assay Protocol: Anticancer human tumor 817829-284-R-J1-PDC cell line growth inhibition [POLQ];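 further: spheroids exposed to compounds for 7 days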;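 on viability, T/C: 100% = DMSO vehicle-treated spheroids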
- Condition Summary: second compound 0.316 µM; first compound 0.316 µM; stronger effect = lower value
Doc: threshold 30% (exclusive). Items with viability, T/C beneath it return Y; others return N.

Solved cases below.
Compound	Group
Nc1ccn(C2OC(CO)C(O)C2(F)F)c(=O)n1 (stereo unspecified) + Nc1ccc(C#CCN(C(=O)Cc2ncc(C(F)(F)F)cc2C(F)(F)F)c2ccc(F)cc2)nn1	Y
CC1COCCN1c1cc(C2(S(C)(=N)=O)CC2)nc(-c2ccnc3[nH]ccc23)n1 (stereo unspecified) + Nc1ccc(C#CCN(C(=O)Cc2ncc(C(F)(F)F)cc2C(F)(F)F)c2ccc(F)cc2)nn1	N
COc1cc2cc(C(=O)CCC(=O)O)sc2cc1OC + Cc1cccc(N(C)C(=O)C2C(O)CCN2c2nc(C)cc(C(F)(F)F)c2C#N)c1	N
CC1COCCN1c1cc(C2(O)CC3CCC(C2)O3)c2cnn(-c3ccn[nH]3)c2n1 (stereo unspecified) + Nc1ccc(C#CCN(C(=O)Cc2ncc(C(F)(F)F)cc2C(F)(F)F)c2ccc(F)cc2)nn1	Y
CC(C)n1c(=O)n(C)c2cnc3cc(F)c(-c4ccc(OCCCN5CCCCC5)nc4)cc3c21 + Nc1ccc(C#CCN(C(=O)Cc2ncc(C(F)(F)F)cc2C(F)(F)F)c2ccc(F)cc2)nn1	N
COc1cccc2c1C(=O)c1c(O)c3c(c(O)c1C2=O)CC(O)(C(=O)CO)CC3OC1CC(N)C(O)C(C)O1 (stereo unspecified) + COC1C(OC(N)=O)C(O)C(Oc2ccc3c(O)c(NC(=O)c4ccc(O)c(CC=C(C)C)c4)c(=O)oc3c2C)OC1(C)C	Y
C=CCn1c(=O)c2cnc(Nc3ccc(N4CCN(C)CC4)cc3)nc2n1-c1cccc(C(C)(C)O)n1 + COC1C(OC(N)=O)C(O)C(Oc2ccc3c(O)c(NC(=O)c4ccc(O)c(CC=C(C)C)c4)c(=O)oc3c2C)OC1(C)C	Y
COc1cccc(OCCCN)c1-c1cc(Nc2cnc(C#N)cn2)n[nH]1 + COC1C(OC(N)=O)C(O)C(Oc2ccc3c(O)c(NC(=O)c4ccc(O)c(CC=C(C)C)c4)c(=O)oc3c2C)OC1(C)C	Y
CNCc1ccc(-c2[nH]c3cc(F)cc4c3c2CCNC4=O)cc1 + Nc1ccc(C#CCN(C(=O)Cc2ncc(C(F)(F)F)cc2C(F)(F)F)c2ccc(F)cc2)nn1	N
O=C(c1cc(Cc2n[nH]c(=O)c3ccccc23)ccc1F)N1CCN(C(=O)C2CC2)CC1 + Nc1ccc(C#CCN(C(=O)Cc2ncc(C(F)(F)F)cc2C(F)(F)F)c2ccc(F)cc2)nn1	N

Moving on to the next compound.
Q. Bench note: check whether C#Cc1c(F)ccc2cc(O)cc(-c3ncc4c(N5CC6CCC(C5)N6)nc(OCC56CCCN5CC(F)C6)nc4c3F)c12 (stereo unspecified) + Cc1cccc(N(C)C(=O)C2C(O)CCN2c2nc(C)cc(C(F)(F)F)c2C#N)c1 shows viability, T/C below 30%
A. N

---

- System: 817829-284-R-J1-PDC complex spheroid viability
- Assay Protocol: Anticancer human tumor 817829-284-R-J1-PDC cell line growth inhibition [POLQ]; active means viability on the fitted dose curve at most 10% of control; inactive means the rest;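 further: spheroids exposed to compounds for 7 days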
- Condition Summary: second compound 0.316 µM; first compound 3.16 µM
Allowed answers: Y for active, N for inactive

Solved cases below.
Compound	Group
COc1cccc2c1C(=O)c1c(O)c3c(c(O)c1C2=O)CC(O)(C(=O)CO)CC3OC1CC(N)C(O)C(C)O1 (stereo not drawn) + Nc1ccc(C#CCN(C(=O)Cc2ncc(C(F)(F)F)cc2C(F)(F)F)c2ccc(F)cc2)nn1	Y
COc1cc2cc(C(=O)CCC(=O)O)sc2cc1OC + COC1C(OC(N)=O)C(O)C(Oc2ccc3c(O)c(NC(=O)c4ccc(O)c(CC=C(C)C)c4)c(=O)oc3c2C)OC1(C)C	N

Q. I'd appreciate the recorded outcome for COc1cccc2c1C(=O)c1c(O)c3c(c(O)c1C2=O)CC(O)(C(=O)CO)CC3OC1CC(N)C(O)C(C)O1 (stereo not drawn) + COC1C(OC(N)=O)C(O)C(Oc2ccc3c(O)c(NC(=O)c4ccc(O)c(CC=C(C)C)c4)c(=O)oc3c2C)OC1(C)C from this test.
A. Y
